Entries with reported pKi on Rat SERT (Rattus norvegicus, UniProt P31652)
Sequence (P31652 whole entry): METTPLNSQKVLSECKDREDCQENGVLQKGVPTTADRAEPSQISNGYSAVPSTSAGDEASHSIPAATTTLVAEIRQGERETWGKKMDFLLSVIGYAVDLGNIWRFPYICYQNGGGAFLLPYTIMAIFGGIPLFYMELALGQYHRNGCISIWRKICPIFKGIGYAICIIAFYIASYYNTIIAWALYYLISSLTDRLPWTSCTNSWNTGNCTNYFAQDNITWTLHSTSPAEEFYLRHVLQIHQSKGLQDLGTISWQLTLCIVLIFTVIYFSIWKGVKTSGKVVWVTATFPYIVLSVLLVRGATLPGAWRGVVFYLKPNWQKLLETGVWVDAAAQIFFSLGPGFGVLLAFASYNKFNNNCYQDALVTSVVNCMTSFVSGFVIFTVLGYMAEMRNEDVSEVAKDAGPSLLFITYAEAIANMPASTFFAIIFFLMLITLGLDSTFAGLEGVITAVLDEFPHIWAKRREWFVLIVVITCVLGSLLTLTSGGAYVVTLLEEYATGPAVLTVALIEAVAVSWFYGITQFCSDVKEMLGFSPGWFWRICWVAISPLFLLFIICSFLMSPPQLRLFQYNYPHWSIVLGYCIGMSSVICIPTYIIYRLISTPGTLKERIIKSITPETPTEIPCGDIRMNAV
pKi: −log10 of the molar value.
QUANTITY_KIND: pKi

COMPOUND | EXPERIMENTAL_RESULT
CCCCN1CCN(Cc2ccc(C(CCN(C)C)Oc3ccc(C(F)(F)F)cc3)cc2)CC1 (stereo not shown) | 7.32
CN(C)CCC(Oc1ccccc1)c1ccc(OCCCN2CCCCC2)cc1 (stereo not shown) | 9.00

P: CN(C)CCC(Oc1ccccc1)c1ccc(C#CCCN2CCCCC2)cc1 (stereo not shown)
Q: CN(C)CCC(Oc1ccc(C#CCCN2CCCCC2)cc1)c1ccc(C(F)(F)F)cc1 (stereo not shown)
Quick check, higher pKi between P and Q ? State your choice using its label. P

Reference for the values: patent US20080139564A1
